- experimentalSystem: Sigma intracellular receptor 2 (Homo sapiens) (UniProt Q5BJF2)
- Sequence (Q5BJF2 whole entry): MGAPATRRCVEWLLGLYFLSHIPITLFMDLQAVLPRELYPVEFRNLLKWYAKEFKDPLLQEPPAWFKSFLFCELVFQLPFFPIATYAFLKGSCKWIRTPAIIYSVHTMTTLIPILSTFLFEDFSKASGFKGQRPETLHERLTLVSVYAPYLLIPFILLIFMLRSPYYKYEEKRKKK
- testParameters: Compound concentration 10 µM
- Description: PDSP Primary Binding target: TMEM97 - Compounds are tested at 10 uM concentration, plate are incubated at room temperature in the dark for 90 minutes. Reaction are stopped by vacuum filtration onto 0.3% polyethyleneimine soaked filter mats using Filtermate harvester. Scintilation cocktail is then melted onto microwave-dried filters on a hot plate and the radio activity is counted in Microbia counter.
Parameter threshold = 20%. Response is met when inhibition meets or exceeds it, else not met.

Has C[C@]1(C(=O)N(CCCC(=O)O)Cc2cccc(Cl)c2)CCN1C(=O)c1csc2ccccc12 a recorded inhibition greater than or equal to 20%? not met

Has CC(C)(C)NC[C@H](O)COc1nsnc1N1CCOCC1 a recorded inhibition greater than or equal to 20%? not met

----------
- experimentalSystem: Sigma intracellular receptor 2 (Homo sapiens)
- testParameters: Compound concentration 10 µM; call rule not given here
Allowed answers: active, inactive

As a guide, the following entries are already answered.
molecule: Cc1cc(C)cc(-c2cnc3cc(Cl)c(-c4cccc(O)c4)cc3c2OCCCN)c1
classLabel: active
//
molecule: COc1ccc2cc(S(=O)(=O)N[C@H](CC(=O)N[C@H](Cc3ccc(CN4[C@H](C)CCC[C@@H]4C)cc3)C(=O)N(C)C(C)C)c3ccc4c(c3)OCO4)ccc2c1
classLabel: active
//
molecule: CS(=O)(=O)NC[C@H]1CC[C@H](Nc2nc3c(s2)CCSc2ccccc2-3)CC1
classLabel: active
//
molecule: CCc1ccc(OCc2ccccc2C(=O)Nc2ccc3nc(C)cc(N)c3c2)cc1
classLabel: active

Outcome? CN[C@@H]1CCc2[nH]c3ccc(C(N)=O)cc3c2C1 active

Outcome? Cc1nn(C)c(C)c1-c1cccc2c1CC[C@H](N(C)C)C2 active

Outcome? CCCCC#Cc1nc(NC)c2ncn([C@@H]3O[C@H](CO)[C@@H](O)[C@H]3O)c2n1 inactive

Outcome? CC(C)C[C@H](NC(=O)N1CCCCCC1)C(=O)N[C@H](Cc1cn(C)c2ccccc12)C(=O)N[C@H](Cc1ccccn1)C(=O)O inactive

Outcome? CSc1ccc(C(=O)N[C@@H]2CCCC[C@@H]2NC(=O)CNC(=O)c2cc(C(F)(F)F)ccc2NC(=O)NC(C)C)cc1 inactive

Outcome? NCCc1c[nH]c2ccc(C(N)=O)cc12 active

Outcome? CCCCN(CC)c1nc(C)nc2c1c(C)cn2-c1c(C)cc(C)cc1C active

Outcome? c1nc(CC2CCNCC2)c[nH]1 inactive

----------
- experimentalSystem: Delta-type opioid receptor (Homo sapiens)
- testParameters: Compound concentration 10 µM
- Description: PDSP Primary Binding target: OPRD1 - Compounds are tested at 10 uM concentration, plate are incubated at room temperature in the dark for 90 minutes. Reaction are stopped by vacuum filtration onto 0.3% polyethyleneimine soaked filter mats using Filtermate harvester. Scintilation cocktail is then melted onto microwave-dried filters on a hot plate and the radio activity is counted in Microbia counter.
valueKind: inhibition (%)
Give just the number in %; leave the unit off.

molecule: Cc1cc(C)cc(-c2cnc3cc(Cl)c(-c4cccc(O)c4)cc3c2OCCCN)c1
endpointResult: 50.2
//
molecule: Cc1c(F)cccc1NC(=O)Nc1ccc(Cl)c(S(=O)(=O)[C@H]2CCCNC2)c1O
endpointResult: -5.71
//
molecule: Cc1cccc([C@H](C)c2c[nH]cn2)c1C
endpointResult: -4.15
//
molecule: N[C@H](C(=O)O)c1ccc(C(=O)O)c(C(=O)O)c1
endpointResult: 13.1
//
molecule: CC(C)NC(=O)c1ccc(C#Cc2ccncc2)cn1
endpointResult: -3.71

Suppose we examine the molecule Cc1cc([C@@H](C)Nc2cccc(-c3cc(C)c(C(=O)N[C@@H](C)C(=O)O)c(C)c3)c2)ccc1Cl ; what inhibition value has been reported? 35.9

Suppose we examine the molecule CNc1nc(NCc2ccc(NS(C)(=O)=O)cc2Cl)cc(-c2ccccn2)n1 ; what inhibition value has been reported? -8.14

Suppose we examine the molecule NC(=O)[C@@H]1CCCN1C(=O)[C@H](Cc1c[nH]cn1)NC(=O)[C@@H]1CCC(=O)N1 ; what inhibition value has been reported? 1.37

Suppose we examine the molecule CN[C@@H]1CCc2[nH]c3ccc(C(N)=O)cc3c2C1 ; what inhibition value has been reported? 2.74

Suppose we examine the molecule C[C@H](NC[C@H](O)CP(=O)(O)CC1CCCCC1)c1ccc(Cl)c(Cl)c1 ; what inhibition value has been reported? -5.34

----------
- experimentalSystem: Kappa-type opioid receptor (Homo sapiens) (UniProt P41145)
- Sequence (P41145 whole entry): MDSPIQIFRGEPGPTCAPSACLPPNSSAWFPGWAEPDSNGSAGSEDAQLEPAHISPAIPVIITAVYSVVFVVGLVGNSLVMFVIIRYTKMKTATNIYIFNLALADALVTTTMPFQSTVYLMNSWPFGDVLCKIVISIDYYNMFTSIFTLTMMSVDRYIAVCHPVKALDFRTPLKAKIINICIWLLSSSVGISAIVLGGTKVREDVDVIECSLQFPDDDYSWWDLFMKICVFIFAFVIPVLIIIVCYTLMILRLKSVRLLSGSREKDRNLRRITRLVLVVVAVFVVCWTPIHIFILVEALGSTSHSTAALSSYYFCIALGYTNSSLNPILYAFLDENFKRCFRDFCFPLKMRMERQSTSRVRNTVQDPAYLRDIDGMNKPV
- testParameters: Compound concentration 10 µM
- Description: PDSP Primary Binding target: OPRK1 - Compounds are tested at 10 uM concentration, plate are incubated at room temperature in the dark for 90 minutes. Reaction are stopped by vacuum filtration onto 0.3% polyethyleneimine soaked filter mats using Filtermate harvester. Scintilation cocktail is then melted onto microwave-dried filters on a hot plate and the radio activity is counted in Microbia counter.
Field: class. Source value: inhibition. Ranges: low interval: < 20%; middle interval: ≥ 20% and < 50%; high interval: ≥ 50%

As a guide, the following entries are already answered.
compound: O=C(O)c1cc(-c2ccc(C3CCNCC3)cc2)c2ccc(-c3ccc(C(F)(F)F)cc3)cc2c1
classLabel: low interval

compound: C[N+]1(C)[C@@H]2C[C@@H](OC(=O)C(O)(c3cccs3)c3cccs3)C[C@H]1[C@@H]1O[C@@H]12
classLabel: low interval

compound: Cc1c(P(=S)(c2ccccc2)c2ccccc2)n2ccccc2[n+]1C/C=C/c1ccccc1
classLabel: high interval

compound: Cc1ccccc1C(=O)Nc1ccc(C(=O)N2CCCC(O)c3cc(Cl)ccc32)c(C)c1 (centres undefined)
classLabel: middle interval

Which bin should I file Cc1nnn(-c2ccc(-c3ccc(C4(C(=O)O)CC4)cc3)cc2)c1NC(=O)O[C@H](C)c1ccccc1 under? low interval

----------
- experimentalSystem: Alpha-2A adrenergic receptor (Homo sapiens)
- testParameters: Compound concentration 10 µM; call rule not given here
Allowed answers: Yes (active), No (inactive)

As a guide, the following entries are already answered.
compound: Clc1cccc(COc2cncc(N3CCNCC3)n2)c1
classLabel: No
//
compound: O=C(O)c1cc(-c2ccc(C3CCNCC3)cc2)c2ccc(-c3ccc(C(F)(F)F)cc3)cc2c1
classLabel: No
//
compound: Cc1cccc([C@H](C)c2c[nH]cn2)c1C
classLabel: Yes
//
compound: CC1CCN(CC[C@H]2CCCN2S(=O)(=O)c2cccc(O)c2)CC1
classLabel: Yes
//
compound: O=S1(=O)c2cccc3cccc(c23)N1CCCN1CCN(c2ccc(F)cc2)CC1
classLabel: Yes

Outcome? CN1CCCC(n2nc(Cc3ccc(Cl)cc3)c3ccccc3c2=O)CC1 (stereo not given) Yes

----------
- experimentalSystem: UniProt P35367
- Sequence (P35367 whole entry): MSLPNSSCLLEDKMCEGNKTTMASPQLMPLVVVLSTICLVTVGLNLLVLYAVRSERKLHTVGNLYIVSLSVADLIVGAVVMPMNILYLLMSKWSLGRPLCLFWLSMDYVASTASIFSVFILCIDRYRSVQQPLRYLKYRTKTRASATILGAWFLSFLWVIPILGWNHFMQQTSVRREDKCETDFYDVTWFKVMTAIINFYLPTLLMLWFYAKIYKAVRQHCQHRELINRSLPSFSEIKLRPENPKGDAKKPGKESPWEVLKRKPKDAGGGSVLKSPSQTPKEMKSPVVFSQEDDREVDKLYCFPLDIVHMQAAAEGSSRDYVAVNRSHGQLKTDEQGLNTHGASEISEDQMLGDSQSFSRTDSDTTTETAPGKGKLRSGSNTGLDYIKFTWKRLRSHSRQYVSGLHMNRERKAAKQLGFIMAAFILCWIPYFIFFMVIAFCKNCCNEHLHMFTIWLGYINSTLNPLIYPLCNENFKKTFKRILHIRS
- testParameters: Compound concentration 10 µM; call rule not given here
Allowed answers: 1.0 for active, 0.0 for inactive

As a guide, the following entries are already answered.
givenSmiles: COc1ccc(CNC(=O)c2cc(-c3cncc(Cl)c3)cnc2-c2ccccn2)nc1OC
classLabel: 0.0
--
givenSmiles: CCc1ccc(OCc2ccccc2C(=O)Nc2ccc3nc(C)cc(N)c3c2)cc1
classLabel: 0.0
--
givenSmiles: CCC[C@H](Oc1cc(C)c(-n2cc(C(F)(F)F)cn2)c(C)c1)c1ccc(C(=O)NCCC(=O)O)cc1
classLabel: 0.0
--
givenSmiles: Nc1nc2c(c(N3CCNCC3)n1)CCC1=C2[C@@H]2CCCC[C@@H]2O1
classLabel: 1.0

// next entry
Outcome? COc1ccccc1N1CCN(CCCCNC(=O)c2ccc3ccccc3c2)CC1 1.0

----------
- experimentalSystem: D(1A) dopamine receptor (Homo sapiens) (UniProt P21728)
- Sequence (P21728 whole entry): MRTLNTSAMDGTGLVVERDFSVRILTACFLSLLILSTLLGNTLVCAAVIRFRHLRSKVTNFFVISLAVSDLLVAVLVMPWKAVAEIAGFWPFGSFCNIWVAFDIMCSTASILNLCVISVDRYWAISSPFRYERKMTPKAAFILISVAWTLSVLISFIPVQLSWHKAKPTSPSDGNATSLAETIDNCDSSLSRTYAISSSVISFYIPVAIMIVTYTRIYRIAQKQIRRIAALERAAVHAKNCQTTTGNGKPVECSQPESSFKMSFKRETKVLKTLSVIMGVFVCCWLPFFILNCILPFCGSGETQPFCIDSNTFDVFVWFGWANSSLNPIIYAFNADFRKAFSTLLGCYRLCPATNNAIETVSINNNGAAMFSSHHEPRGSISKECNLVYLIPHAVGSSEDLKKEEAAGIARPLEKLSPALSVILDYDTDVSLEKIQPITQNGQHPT
- testParameters: Compound concentration 10 µM
- Description: PDSP Primary Binding target: DRD1 - Compounds are tested at 10 uM concentration, plate are incubated at room temperature in the dark for 90 minutes. Reaction are stopped by vacuum filtration onto 0.3% polyethyleneimine soaked filter mats using Filtermate harvester. Scintilation cocktail is then melted onto microwave-dried filters on a hot plate and the radio activity is counted in Microbia counter.
valueKind: inhibition (%)
Give just the number in %; leave the unit off.

Suppose we examine the compound Cc1c(OCc2cccc(-c3ccc(C(=O)O)cc3)c2)cc2c(c1C)C(=O)C(C1CCCC1)C2 (centres undefined) ; what inhibition value has been reported? -5.51

Suppose we examine the compound O=c1ccc2ccc(OCCCCN3CCN(c4cccc5sccc45)CC3)cc2[nH]1 ; what inhibition value has been reported? 82.6

Suppose we examine the compound CCC[C@H](Oc1cc(C)c(-n2cc(C(F)(F)F)cn2)c(C)c1)c1ccc(C(=O)NCCC(=O)O)cc1 ; what inhibition value has been reported? 20.2

Suppose we examine the compound N#Cc1c(N)nc(SCc2csc(-c3ccc(Cl)cc3)n2)c(C#N)c1-c1ccc(OCCO)cc1 ; what inhibition value has been reported? 11.3

----------
- experimentalSystem: D(1A) dopamine receptor (Homo sapiens)
- testParameters: Compound concentration 10 µM
The following molecules are shown together with reported inhibition values.
Give just the number in %; leave the unit off.

Completed entries (count: 3):
molecule: CCCCc1nc(Cl)c(CO)n1Cc1ccc(-c2ccccc2-c2nnn[nH]2)cc1
inhibition / %: 10.3
--
molecule: CNC[C@H](O)c1ccc(O)c(O)c1
inhibition / %: 10.9
--
molecule: Cc1csc(NC(=O)c2cc(F)cc(Oc3cncnc3)c2)n1
inhibition / %: -5.62

Suppose we examine the molecule OC[C@H]1O[C@@H](n2cnc3c(NC4CCCC4)ncnc32)[C@H](O)[C@@H]1O ; what inhibition value has been reported? -1.28

Suppose we examine the molecule CCCCN1CCC(COC(=O)c2cc(Cl)c(N)c3c2OCCO3)CC1 ; what inhibition value has been reported? 3.42

Suppose we examine the molecule O=C(c1cc2c(cc1F)OC(c1ccc(F)cc1)(c1ccc(Cl)cc1Cl)O2)N1CCOCC1 (stereo not given) ; what inhibition value has been reported? 48

Suppose we examine the molecule Cc1ccc(O)c([C@H](CCN(C(C)C)C(C)C)c2ccccc2)c1 ; what inhibition value has been reported? -4.98

Suppose we examine the molecule O=c1ccn([C@@H]2O[C@H](COP(=O)(O)OP(=O)(O)OP(=O)(O)O)[C@@H](O)[C@H]2O)c(=O)[nH]1 ; what inhibition value has been reported? 45.1

Suppose we examine the molecule CN1CC(=O)N=C1NC(=O)Nc1cccc(Cl)c1 ; what inhibition value has been reported? 14.5

Suppose we examine the molecule COc1ccc2[nH]cc(CCNC(C)=O)c2c1 ; what inhibition value has been reported? 13.1

Suppose we examine the molecule CCCCCNC(=N)N/N=C/c1c[nH]c2ccc(OC)cc12 ; what inhibition value has been reported? 47.1

Suppose we examine the molecule Nc1nc2c(c(N3CCNCC3)n1)CCC1=C2[C@@H]2CCCC[C@@H]2O1 ; what inhibition value has been reported? -6.45
